System: UACC-62 melanoma
ASSAY_DETAILS: NCI-60 one-dose screen, 48 h (100 = growth as untreated, 0 = no growth, -100 = all killed)
CONDITION_CONTEXT: 10 µM unless noted
This is part of a sample that, as a whole, favours compounds with a hit. Of some 83,000 tested, about 20% had one in any assay.
Categories are assigned from the measured growth using these intervals: low (below 20%), moderate (20% to below 60%), high (60% or more)

See these solved cases before continuing.
ClCc1ccc(-c2ccc(Cn3cnc4c(Cl)nc(Cl)nc43)cc2)cc1 = low
Cc1cn(-c2cc(NC(=O)c3ccc(C)c(Nc4nccc(-c5cnccn5)n4)c3)cc(C(F)(F)F)c2)cn1 = moderate
Cc1cc(-c2cc(OC(=O)c3ccccc3)ccc2Cl)cc2nnc(Nc3ccc(OCCN4CCCC4)cc3)nc12 = high
N[C@@H]1CCCN(c2c(/C=C3\SC(=O)NC3=O)cccc2-c2ccccc2)C1 = high
Nc1c(Cl)cccc1[N+](=O)[O-] = high
CNS(=O)(=O)Nc1nccc(Cc2c(C)c3ccc(Oc4ncccn4)cc3oc2=O)c1F = low
CC[C@H](Nc1ncnc2nc[nH]c12)c1nc2cccc(F)c2c(=O)n1-c1ccccc1 = moderate
Cc1ccc(NC(=O)NC(=O)CSc2nc3ccccc3nc2C)cc1 = moderate
C/C(=C(/c1ccc(Cl)cc1)c1ccc(OCCN2CCCCC2)cc1)c1ccccc1 = high
CC(C)CC(=O)Nc1n[nH]c2c1CN(C(=O)C1CCN(C)CC1)C2(C)C = low

Request: Which of the defined bands does the recorded growth of NC1=Nc2ccccc2N(O)N1 sit within?
Response: high

###

Test system: PC-3 prostate
ASSAY_DETAILS: NCI-60 one-dose screen, 48 h (100 = growth as untreated, 0 = no growth, -100 = all killed)
CONDITION_CONTEXT: 10 µM unless noted
The panel holds about 83,000 compounds, 20% with a hit somewhere; the sample as a whole holds those more often.
READOUT_NAME: growth (%)
Answer format: numeric, % implied, no suffix.

C#Cc1cccc(Nc2ncnc3cc(OC)c(OCCCCCCC(=O)NO)cc23)c1 = 10.4
CCOc1cc2ncc(C#N)c(Nc3ccc(F)c(Cl)c3)c2cc1NC(=O)/C=C/CN(C)C = -1.37
NS(=O)(=O)c1ccc(CCN2C(=O)/C(=C\c3ccc(Cl)cc3)C=C2c2ccc3ccccc3c2)cc1 = 75.8
CC[C@H](CO)Nc1nc(NCc2ccccc2)c2ncn(C(C)C)c2n1 = 70.8
C=CC(=O)Nc1cccc(Oc2nc(Nc3ccc(N4CCN(C)CC4)cc3)nc3ccsc23)c1 = -44.5

Okay, now this compound:
The compound CN1CCN(Cc2ccc(NC(=O)c3[nH]ncc3Nc3ncnc4sc5c(c34)CCCC5)cc2)CC1 on PC-3 prostate: growth was -77.8

###

Tested on: SF-268 CNS
ASSAY_DETAILS: NCI-60 one-dose screen, 48 h (100 = growth as untreated, 0 = no growth, -100 = all killed)
CONDITION_CONTEXT: 10 µM unless noted
This is part of a sample that, as a whole, favours compounds with a hit. Of some 83,000 tested, about 20% had one in any assay.
READOUT_NAME: growth (%)
// units = %; emit number, no label

Recorded results for 3 compounds are shown here.
Cc1cc(N(CCNc2ccnc3cc(Cl)ccc23)Cc2ccc3c(c2)OCO3)nc(N2CCN(C)CC2)n1 = 29.3
Cc1[nH]c(/C=C2\C(=O)Nc3ccc(F)cc32)c(C)c1C(=O)NC[C@H](O)CN1CCOCC1 = 40.9
O=C(Nc1cn[nH]c1-c1nc2ccc(CN3CCOCC3)cc2[nH]1)NC1CC1 = 23.8

compound COc1ccc(-c2ccc3c(N4CCOC[C@@H]4C)nc(N4CCOC[C@@H]4C)nc3n2)cc1CO , growth observed: 14.9

So for CCN(CCN(C)C)C(=O)CNCc1cc(C(N)=O)ccn1 , the logged growth turned out to be 108
